The reported measurements were obtained from patent US20240116985A1.

Assay: CHI Log D procedure
Type: physicochemical
Conditions: pH 7.4
Entries and their measured CHI Log D follow.
quantity measured: CHI Log D

compound="CC(=O)N1CCC[C@]12CC=CCCCC1(CCCC=CCCCCCC[C@@](C)(C(=O)N[C@@H](Cc3ccc(F)c(F)c3)C(=O)N[C@@H](Cc3c[nH]c4ccccc34)C(=O)N[C@@H](CCC(N)=O)C(N)=O)NC(=O)[C@H](C(C)C)NC(=O)[C@H](Cc3ccccc3)NC(=O)[C@H](C)NC(=O)[C@H](C)NC(=O)[C@H](CC(=O)O)NC(=O)[C@H](CC(=O)O)NC1=O)NC(=O)[C@H](C)NC(=O)[C@H](CC(=O)O)NC2=O (stereo partly shown) [I-263]" result_number=2.128
compound="CC[C@H](C)[C@@H]1NC(=O)[C@H](CC(=O)O)NC(=O)[C@]2(CC=CCCCC3(CCCC=CCCCCCC[C@@](C)(C(=O)N[C@@H](Cc4ccccc4)C(=O)N[C@@H](Cc4csc5ccccc45)C(=O)N[C@@H](CCC(N)=O)C(=O)N[C@@H](CCCCNC(=O)CN=[N+]=[N-])C(N)=O)NC(=O)[C@H](CCC(N)=O)NC(=O)[C@H](Cc4ccccc4)NC(=O)[C@H](C)NC(=O)[C@H](C)NC(=O)[C@H](CCC(=O)O)NC(=O)[C@H](CC(=O)O)NC3=O)NC1=O)CCCN2C(C)=O (stereo partly shown) [I-597]" result_number=2.39
compound="CC(=O)N1CCC[C@]12CC=CCCCC1(CCCC=CCCCCCC[C@@](C)(C(=O)N[C@@H](Cc3ccccc3)C(=O)N[C@@H](Cc3c[nH]c4ccccc34)C(=O)N[C@@H](CCC(N)=O)C(N)=O)NC(=O)[C@H](C(C)C)NC(=O)[C@H](Cc3cccc(C(F)(F)F)c3)NC(=O)[C@H](C)NC(=O)[C@H](C)NC(=O)[C@H](CC(=O)O)NC(=O)[C@H](CC(=O)O)NC1=O)NC(=O)[C@H](C)NC(=O)[C@H](CC(=O)O)NC2=O (stereo partly shown) [I-236]" result_number=2.067
compound="CC(=O)N1CCC[C@]12CC=CCCCC1(CCCC=CCCCOC(=O)N3CC[C@@](C(=O)N[C@@H](Cc4ccccc4Cl)C(=O)N[C@@H](Cc4csc5ccccc45)C(=O)N[C@@H](CCC(N)=O)C(N)=O)(C3)NC(=O)[C@H]([C@@H](C)O)NC(=O)[C@H](Cc3ccccc3)NC(=O)[C@H](C)NC(=O)[C@H](C)NC(=O)[C@H](CN(CC(=O)O)CC(F)(F)F)NC(=O)[C@H](CC(=O)O)NC1=O)NC(=O)[C@H](CC(C)(C)C)NC(=O)[C@H](CC(=O)O)NC2=O (stereo partly shown) [I-922]" result_number=2.344
compound="CC(=O)N1CCC[C@]12CC=CCCCC1(CCCC=CCCCOC(=O)N3CC[C@@](C(=O)N[C@@H](Cc4ccsc4)C(=O)N[C@@H](Cc4csc5ccccc45)C(=O)N[C@@H](CCC(N)=O)C(N)=O)(C3)NC(=O)[C@H](CC(N)=O)NC(=O)[C@H](Cc3ccccc3)NC(=O)[C@H](C)NC(=O)[C@H](C)NC(=O)[C@H](CC(=O)O)NC(=O)[C@H](CC(=O)O)NC1=O)NC(=O)[C@H](CC(C)C)NC(=O)[C@H](CC(=O)O)NC2=O (stereo partly shown) [I-689]" result_number=1.957
compound="CC[C@H](C)[C@H](NC(=O)[C@H](CC(=O)O)NC(=O)[C@H](C)NC(C)=O)C(=O)N[C@]1(C)CCN(C)C(=O)OCC=CCCCCC[C@@](C)(C(=O)N[C@@H](Cc2ccccc2)C(=O)N[C@@H](Cc2c[nH]c3ccccc23)C(=O)N[C@@H](Cc2c[nH]cn2)C(N)=O)NC(=O)[C@H](CCC(N)=O)NC(=O)[C@H](Cc2ccccc2)NC(=O)[C@H](C)NC(=O)[C@H](C)NC(=O)[C@H](CC(=O)O)NC(=O)[C@H](CC(=O)O)NC1=O [I-64]" result_number=1.222
compound="CC(=O)N1CCC[C@]12CC=CCCCC1(CCCC=CCCCCCC[C@@](C)(C(=O)N[C@@H](Cc3ccccc3)C(=O)N[C@@H](Cc3c[nH]c4ccccc34)C(=O)N[C@@H](Cc3c[nH]cn3)C(N)=O)NC(=O)[C@H](CCC(N)=O)NC(=O)[C@H](Cc3ccccc3)NC(=O)[C@H](C)NC(=O)[C@H](C)NC(=O)[C@H](CCC(=O)O)NC(=O)[C@H](CC(=O)O)NC1=O)NC(=O)[C@H](C)NC(=O)[C@H](CC(=O)O)NC2=O (stereo partly shown) [I-178]" result_number=1.913
compound="CC(=O)N1CCC[C@]12CC=CCCCC1(CCCC=CCCCOC(=O)N3CC[C@@](C(=O)N[C@@H](Cc4ccccc4Cl)C(=O)N[C@@H](Cc4csc5ccccc45)C(=O)N[C@@H](CCC(N)=O)C(N)=O)(C3)NC(=O)[C@H](CC(C)C)NC(=O)[C@H](Cc3ccccc3)NC(=O)[C@H](C)NC(=O)[C@H](C)NC(=O)[C@H](CCC(=O)O)NC(=O)[C@H](CC(=O)O)NC1=O)NC(=O)[C@H](CC1CCCCC1)NC(=O)[C@H](CC(=O)O)NC2=O (stereo partly shown) [I-1077]" result_number=2.06
compound="CC[C@H](C)[C@@H]1NC(=O)[C@H](CC(=O)O)NC(=O)[C@]2(CC=CCCCC3(CCCC=CCCCCCC[C@@](C)(C(=O)N[C@@H](Cc4ccccc4)C(=O)N[C@@H](Cc4csc5ccccc45)C(=O)N[C@@H](CCC(N)=O)C(N)=O)NC(=O)[C@H](CCC(N)=O)NC(=O)[C@H](Cc4ccccc4)NC(=O)[C@H](C)NC(=O)[C@H](C)NC(=O)[C@H](CN(CC(=O)O)CC(F)(F)F)NC(=O)[C@H](CC(=O)O)NC3=O)NC1=O)CCCN2C(C)=O (stereo partly shown) [I-610]" result_number=2.587
compound="CC(=O)N1CCC[C@]12CC=CCCCC1(CCCC=CCCCCCC[C@@](C)(C(=O)N[C@@H](Cc3ccccc3)C(=O)N[C@@H](Cc3c[nH]c4ccccc34)C(=O)N[C@@H](CCC(N)=O)C(N)=O)NC(=O)[C@H](C(C)C)NC(=O)[C@H](Cc3ccccc3)NC(=O)[C@H](C)NC(=O)[C@H](C)NC(=O)[C@H](CC(=O)O)NC(=O)[C@H](CC(=O)O)NC1=O)NC(=O)[C@H](C)NC(=O)[C@H](C)NC2=O (stereo partly shown) [I-349]" result_number=2.415

====

Assay: Solubility in PBS
Assay type: physicochemical
quantity measured: Solubility

molecule="CC(=O)N1CCC[C@]12CC=CCCCC1(CCCC=CCCCCCC[C@@](C)(C(=O)N[C@@H](Cc3ccccc3Br)C(=O)N[C@@H](Cc3csc4ccccc34)C(=O)N[C@@H](CCC(N)=O)C(N)=O)NC(=O)[C@H](CC(N)=O)NC(=O)[C@H](Cc3ccccc3)NC(=O)[C@H](C)NC(=O)[C@H](C)NC(=O)[C@H](CCC(=O)O)NC(=O)[C@H](CC(=O)O)NC1=O)NC(=O)[C@H](C)NC(=O)[C@H](CC(=O)O)NC2=O (some centres unmarked)" result="50 µM"
molecule="CCN(CC(=O)O)C[C@@H]1NC(=O)[C@H](CC(=O)O)NC(=O)C2(CCCC=CCCCOC(=O)N3CC[C@@](C(=O)N[C@@H](Cc4ccsc4)C(=O)N[C@@H](Cc4csc5ccccc45)C(=O)N[C@@H](CCC(N)=O)C(N)=O)(C3)NC(=O)[C@H](Cc3ccccc3)NC(=O)[C@H](Cc3ccccc3)NC(=O)[C@H](C)NC(=O)[C@H](C)NC1=O)CCCC=CC[C@]1(CCCN1C(C)=O)C(=O)N[C@@H](CC(=O)O)C(=O)N[C@@H](CC(C)(C)C)C(=O)N2 (some centres unmarked)" result="10 µM"
molecule="CC(=O)N1CCC[C@]12CC=CCCCC1(CCCC=CCCCCCC[C@@](C)(C(=O)N[C@@H](Cc3ccccc3)C(=O)N[C@@H](Cc3csc4ccccc34)C(N)=O)NC(=O)[C@H](CCCNC(N)=O)NC(=O)[C@H](Cc3ccccc3)NC(=O)[C@H](C)NC(=O)[C@H](C)NC(=O)[C@H](CCC(=O)O)NC(=O)[C@H](CC(=O)O)NC1=O)NC(=O)[C@H](CC(C)C)NC(=O)[C@H](CC(=O)O)NC2=O (some centres unmarked) [I-628]" result="47 µM"
molecule="CC[C@H](C)[C@@H]1NC(=O)[C@H](CC(=O)O)NC(=O)[C@]2(CC=CCCCC3(CCCC=CCCCCCC[C@@](C)(C(=O)N[C@@H](Cc4ccccc4)C(=O)N[C@@H](Cc4csc5ccccc45)C(=O)N[C@@H](CCC(N)=O)C(N)=O)NC(=O)[C@H](CCC(N)=O)NC(=O)[C@H](Cc4ccccc4)NC(=O)[C@H](CO)NC(=O)[C@H](C)NC(=O)[C@H](CCC(=O)O)NC(=O)[C@H](CC(=O)O)NC3=O)NC1=O)CCCN2C(C)=O (some centres unmarked) [I-661]" result="45 µM"
molecule="CC(=O)N1CCC[C@]12CC=CCCCC1(CCCC=CCCCCCC[C@@](C)(C(=O)N[C@@H](Cc3ccccc3)C(=O)N[C@@H](Cc3c[nH]c4ccccc34)C(=O)N[C@@H](CCC(N)=O)C(N)=O)NC(=O)[C@H](C(C)C)NC(=O)[C@H](Cc3ccccc3)NC(=O)[C@H](C)NC(=O)[C@H](C)NC(=O)[C@H](Cc3cccc(F)c3)NC(=O)[C@H](CC(=O)O)NC1=O)NC(=O)[C@H](C)NC(=O)[C@H](CC(=O)O)NC2=O (some centres unmarked)" result="10 µM"
